Assayed System: UniProt Q92551
Sequence (Q92551 whole entry): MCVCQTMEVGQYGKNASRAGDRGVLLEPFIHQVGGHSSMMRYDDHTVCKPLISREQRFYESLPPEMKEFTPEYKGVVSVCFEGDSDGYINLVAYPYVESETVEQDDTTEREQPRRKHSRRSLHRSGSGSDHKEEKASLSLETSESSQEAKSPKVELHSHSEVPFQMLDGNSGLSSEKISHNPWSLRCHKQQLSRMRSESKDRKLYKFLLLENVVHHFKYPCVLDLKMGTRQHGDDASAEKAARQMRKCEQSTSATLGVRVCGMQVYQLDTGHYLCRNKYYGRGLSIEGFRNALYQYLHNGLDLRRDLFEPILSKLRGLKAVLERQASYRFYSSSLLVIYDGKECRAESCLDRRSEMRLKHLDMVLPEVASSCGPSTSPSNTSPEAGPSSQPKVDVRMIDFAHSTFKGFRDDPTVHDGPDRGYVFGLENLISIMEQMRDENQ
Experimental Details: Enzyme-coupled assay of IP6K1 activity (Dipp1-coupled, malachite green Pi release)
Assay type: biochemical
Applied Conditions: enzyme-coupled assay; Table 4
pIC50: −log10 of the molar value.
Measured Attribute: pIC50

Sample answers from the record:
O=C(Nc1cccc(-c2onc3ccc(-c4nnn[nH]4)cc23)c1)C1CCCC1 [Compound 73]: 7.00 to 8.00
CC(C)(C)OC(=O)N1CC(C(=O)N2CCC(c3cccc(-c4onc5ccc(-c6nnn[nH]6)cc45)c3)CC2)C1 [Compound 115]: 6.00 to 7.00
O=C(N1CCC(c2ccc(-c3onc4ccc(-c5nnn[nH]5)cc34)cc2)CC1)C1(F)CC1 [Compound 123]: 6.00 to 7.00

Bench note: what pIC50 did O=C(C1CC1)N1CCC(c2cccc(-c3onc4ccc(-c5nnn[nH]5)cc34)c2)CC1 [Compound 111] show? 7.00 to 8.00

Bench note: what pIC50 did Nc1cccc(-c2ccc(-c3onc4ccc(-c5nnn[nH]5)cc34)cc2)c1 [Compound 95] show? 7.00 to 8.00

Bench note: what pIC50 did c1cncc(-c2ccc(-c3onc4ccc(-c5nnn[nH]5)cc34)cc2)c1 [Compound 69] show? 7.00 to 8.00

Bench note: what pIC50 did Clc1cnc(Oc2cccc(-c3onc4ccc(-c5nnn[nH]5)cc34)c2)c(Cl)c1 [Compound 80] show? 7.00 to 8.00

Bench note: what pIC50 did Cc1cc(C)cc(-c2onc3ccc(-c4nnn[nH]4)cc23)c1 [Compound 65] show? 7.00 to 8.00

Bench note: what pIC50 did c1cc(OC2CCN(CC3CC3)CC2)cc(-c2onc3ccc(-c4nnn[nH]4)cc23)c1 [Compound 88] show? 7.00 to 8.00

Bench note: what pIC50 did CC(C)(C)OC(=O)Nc1cccc(-c2cccc(-c3onc4ccc(-c5nnn[nH]5)cc34)c2)c1 [Compound 96] show? 7.00 to 8.00

Bench note: what pIC50 did O=C(Nc1cccc(-c2onc3ccc(-c4nnn[nH]4)cc23)c1)C1CC1 [Compound 74] show? 7.00 to 8.00

Bench note: what pIC50 did Nc1cccc(-c2cccc(-c3onc4ccc(-c5nnn[nH]5)cc34)c2)c1 [Compound 97] show? 7.00 to 8.00

Bench note: what pIC50 did Fc1ccc(-c2onc3ccc(-c4nnn[nH]4)cc23)cc1 [Compound 63] show? 7.00 to 8.00

Bench note: what pIC50 did c1cc(-c2onc3ccc(-c4nnn[nH]4)cc23)cc(C2CCNCC2)c1 [Compound 104] show? 6.00 to 7.00

Bench note: what pIC50 did CC1(COc2cccc(-c3onc4ccc(-c5nnn[nH]5)cc34)c2)COC1 [Cmpd 91] show? 7.00 to 8.00
